Data credit: patent US8952025B2

tested on: CEM cells; assay: Trypan blue cell viability assay, DEM-treated cells; type: cell-based, human; details: Homo sapiens, CCRF-CEM, CEM cells, pre-treatment 2 h, diethylmaleate 3 h, trypan blue exclusion; read-out: EC50 (effective concentration that prevents 50% of cell death)
compounds and their reported pEC50
// returns pEC50 (minus log10 of molar concentration), number only

In the examples that follow, each entry is paired with its recorded pEC50.
Cc1nc(N(C)C)nc(CCCCCCCCCCO)c1O = 6.69
Cc1cc(N(C)C)nc(CCCCCCCCCCO)c1O = 6.52

Let us examine a further case.
-- ask Fill blank: measured pEC50 of the compound COC1=C(OC)C(=O)C(CCCCCCCCCCO)=C(C)C1=O [idebenone, reference compound] is ____.
-- reply 6.12

---

Collected NADH oxidase activity (%) values appear next to each entry.
system: NADH oxidase, bovine heart mitochondrial complex (I, III, IV); assay: NADH oxidase inhibition assay, submitochondrial particles; format: biochemical; conditions: 10 μM, percentage of control
Write the value in % as a bare number.

# example entries with known answers
CCCCCCCCCCc1nc(N(C)C)nc(OC)c1O [drawing 141] = 10
Cc1cc(N(C)C)nc(CCCCCCCCCCO)c1O [drawing 137] = 20
Cc1nc(N(C)C)nc(CCCCCCCCCCO)c1O [drawing 134] = 15
COc1nc(N(C)C)nc(CCCCCCCCCCO)c1O [drawing 138] = 25

-- ask Dear colleague, I am looking for the recorded NADH oxidase activity (%) of the following compound: CCCCCCCCCCCCCCCCc1nc(N(C)C)nc(C)c1O [drawing 139]
-- reply 62
